Sourced from paper PMC11417181

target: the molecule itself; test: AUC; sedimentation velocity of the SCR fragments, 20 °C, 50,000 rpm, Hepes buffer (10 mM Hepes, 137 mM NaCl, pH 7.4), c(s) analysis in SEDFIT, proportions of monomer and dimer from peak integration; monomer to dimer
glycan = not defined here
measured_metric: proportion of dimer (%)
Respond with the bare value in %.

Please review the entries below; each comes with its answer.
SCR-17H, glycosylated single-domain fragment of complement factor H expressed in Pichia pastoris (domain or fragment, reading uncertain; also: N-linked hyperglycosylation (Pichia) at Asn1011, recombinant protein) IKTDCLSLPSFENAIPMGEKKDVYKAGEQVTYTCATYYKMDGASN(glycan)VTCINSRWTGRPTCRDTS = 67
SCR-16/18H deglycosylated with PNGase F (domain or fragment, N-linked glycans at Asn1011 and Asn1077 treated with PNGase F (the paper suggests that removal may have been impeded)) EGLPCKSPPEISHGVVAHMSDSYQYGEEVTYKCFEGFGIDGPAIAKCLGEKWSHPPSCIKTDCLSLPSFENAIPMGEKKDVYKAGEQVTYTCATYYKMDGASNVTCINSRWTGRPTCRDTSCVNPPTVQNAYIVSRQMSKYPSGERVRYQCRSPYEMFGDEEVMCLNGNWTEPPQCKDST = 63
SCR-18H, glycosylated single-domain fragment of complement factor H expressed in Pichia pastoris (domain or fragment, reading uncertain; also: N-linked hyperglycosylation (Pichia) at Asn1077, recombinant protein) RDTSCVNPPTVQNAYIVSRQMSKYPSGERVRYQCRSPYEMFGDEEVMCLNGN(glycan)WTEPPQCKDST = 57

Now look at this one.
Which proportion of dimer is listed for SCR-16/18H, glycosylated three-domain fragment of complement factor H expressed in Pichia pastoris (domain or fragment, Pichia hyperglycosylated N-linked glycans at Asn1011 and Asn1077) EGLPCKSPPEISHGVVAHMSDSYQYGEEVTYKCFEGFGIDGPAIAKCLGEKWSHPPSCIKTDCLSLPSFENAIPMGEKKDVYKAGEQVTYTCATYYKMDGASNVTCINSRWTGRPTCRDTSCVNPPTVQNAYIVSRQMSKYPSGERVRYQCRSPYEMFGDEEVMCLNGNWTEPPQCKDST ?
78
